Experiment: Lipophilicity, logP of the compound
Type: physicochemical
Conditions: octanol/water
Each item that follows carries a reported logP.
Please respond with just the number, no unit label.

Consider the worked cases shown below.
O=C(Cc1ccc(Cl)c(Cl)c1)N1CCN(c2ccc3nncn3n2)CC1 : 3
O=C(Nc1ccc(Cl)c(Cl)c1)N1CCN(C2=Nn3cnnc3CC2)CC1 : 2.3
O=C(Nc1ccc(Cl)c(Cl)c1)N1CCN(c2ccc3nncn3n2)CC1 : 4

Note: attention shifts to another entry.
Kindly indicate its recorded logP. Item: O=C(Cc1ccc(Cl)c(Cl)c1)N1CCN(C2=Nn3cnnc3CC2)CC1 1.8

---

Tested on: Cryptosporidium parvum
Assay: Antiparasitic activity against Cryptosporidium parvum infected in human HCT-8 cells assessed as parasitic growth inhibition measured for 48 hrs by fluorescence microscopic analysis
Type: functional, organism-based
Details: HCT-8, 48 h
Each item that follows carries a reported pEC50.
Scale explanation: pEC50 corresponds to minus log10 of a concentration expressed in moles per litre.

Consider the worked cases shown below.
Cc1cc2nncn2nc1N1CCN(C(=O)Nc2ccc(Cl)c(Cl)c2)CC1 : 4.60
Nc1nc2nc(N3CCN(C(=O)Cc4ccc(Cl)c(Cl)c4)CC3)ccc2s1 : 5.49

Note: attention shifts to another entry.
Kindly indicate its recorded pEC50. Item: O=C(Cc1ccc(Cl)c(Cl)c1)N1CCN(c2ccc3[nH]ncc3n2)CC1 4.55

---

Test system: Cryptosporidium parvum
Assay: Antiparasitic activity against Cryptosporidium parvum infected in human HCT-8 cells assessed as parasitic growth inhibition measured for 48 hrs by fluorescence microscopic analysis
Type: functional, organism-based
Conditions: HCT-8, 48 h
pEC50: −log10 of the molar value.
Property label: pEC50

Kindly indicate its recorded pEC50. Item: Nc1cn2nc(N3CCN(C(=O)Cc4ccc(Cl)c(Cl)c4)CC3)ccc2n1 < 4.30

Kindly indicate its recorded pEC50. Item: O=C(Nc1ccc(Cl)c(Cl)c1)N1CCN(c2cn3ccnc3cn2)CC1 < 4.60

Kindly indicate its recorded pEC50. Item: O=C(Nc1ccc(Cl)c(Cl)c1)N1CCN(c2ncc(C(F)(F)F)cn2)CC1 < 4.60
